Sourced from patent US20220370416A1

Entries and their DC50
System Under Test: HiBit-KRAS^G12C (Homo sapiens, UniProt P01116, G12C)
Sequence (P01116 1-186 isoform P01116-2 G12C limits assumed): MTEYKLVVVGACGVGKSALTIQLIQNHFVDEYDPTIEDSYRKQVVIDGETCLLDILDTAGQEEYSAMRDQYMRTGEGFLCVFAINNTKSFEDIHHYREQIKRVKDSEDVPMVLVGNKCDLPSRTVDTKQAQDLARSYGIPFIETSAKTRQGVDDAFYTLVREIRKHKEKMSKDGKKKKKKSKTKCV
Assay Details: HiBit degradation assay in SW1573 HiBit-KRas^G12C cells
Format: cell-based
Parameters: expressed in transfected cells; host or cells: SW1573 (clone E6), modified pcDNA3.1 vector, TK promoter
Details: SW1573 HiBit-KRas^G12C, 0.1% DMSO, 24 hours; read-out: KRas^G12C-HIBit (SW1573; 0.1% DMSO) DC50*
Procedure: Reagents. SW1573 (CRL-2170) and MiaPaCa-2 (CRL-1420) cells were purchased from ATCC. Both cell lines are […] for the G12C mutation in KRAS. […] Either SW1573 HiBit-KRas^G12C or MiaPaCa-2 HiBit-KRas^G12C cells were plated at 9000 cells/well in a 384 well plate (Corning #3770). […] Plates were then allowed to equilibrate to room temperature and fluorescence was measured using a Perkin-Elmer EnVision. […]
Measurement Label: DC50

[
  {
    "Compound": "C=CC(=O)N1CCN(c2nc(O[C@H](C)CN3CCC(OCCOCCOCCOc4cc(-c5scnc5C)ccc4CNC(=O)[C@@H]4C[C@@H](O)CN4C(=O)[C@@H](c4cc(C)no4)C(C)C)CC3)nc3c(F)c(-c4cc(O)cc5ccccc45)c(Cl)cc23)CC1",
    "System Under Test": "HiBit-KRAS^G12C (Homo sapiens, UniProt P01116, G12C)",
    "Measurement Label": "DC50",
    "Data Value": "> 1000 nM"
  },
  {
    "Compound": "C=CC(=O)N1CCN(c2nc(OCCN3CCC(OCCOc4cc([C@H](C(=O)N5C[C@H](O)C[C@H]5C(=O)N[C@@H](C)c5ccc(-c6scnc6C)cc5)C(C)C)on4)CC3)nc3c(F)c(-c4cc(O)cc5ccccc45)c(Cl)cc23)C[C@@H]1CC#N (single isomer, unassigned) [Compound 21]",
    "System Under Test": "HiBit-KRAS^G12C (Homo sapiens, UniProt P01116, G12C)",
    "Measurement Label": "DC50",
    "Data Value": "100 to 1000 nM"
  },
  {
    "Compound": "C=CC(=O)N1CCN(c2nc(O[C@H]3CCC[C@@H]3N3CCC(COCC(=O)N[C@H](C(=O)N4C[C@H](O)C[C@H]4C(=O)N[C@@H](C)c4ccc(-c5scnc5C)cc4)C(C)(C)C)CC3)nc3c(F)c(-c4cc(O)cc5ccccc45)c(Cl)cc23)CC1",
    "System Under Test": "HiBit-KRAS^G12C (Homo sapiens, UniProt P01116, G12C)",
    "Measurement Label": "DC50",
    "Data Value": "100 to 1000 nM"
  },
  {
    "Compound": "C=CC(=O)N1CCN(c2nc(OCCN3CCC(OCCOCC(=O)N[C@H](C(=O)N4C[C@@H](O)C[C@H]4C(=O)N[C@@H](C)c4ccc(-c5scnc5C)cc4)C(C)(C)C)CC3)nc3c(F)c(-c4cc(O)cc5ccccc45)c(Cl)cc23)C[C@@H]1CC#N",
    "System Under Test": "HiBit-KRAS^G12C (Homo sapiens, UniProt P01116, G12C)",
    "Measurement Label": "DC50",
    "Data Value": "> 1000 nM"
  }
]
